Tested on: Klebsiella pneumoniae
test: Antibiofilm activity against carbapenem-resistant Klebsiella pneumoniae assessed as disruption of biofilm at 200 ug/ml after 24 hrs by crystal violet staining based ELISA relative to control
Assay type: functional
measured-quantity: inhibition at 200 µg/mL (%)
Quick note: give the figure in %, leave out the unit.

(Q) Supply reported inhibition at 200 µg/mL belonging to this compound: Cc1ccc2[nH]c3c(c2c1)CCC(=C\c1cccc(Br)c1)/C3=C(\C#N)C(N)=O
(A) 20.7

(Q) Tell us which inhibition at 200 µg/mL value is on record for CCOc1ccc(/C=C2\CCc3c([nH]c4ccc(C)cc34)\C2=C(\C#N)C(N)=O)cc1OCC
(A) 16

(Q) State its inhibition at 200 µg/mL for this compound: Cc1ccc2[nH]c3c(c2c1)CCC(=C\c1cccc(F)c1)/C3=C(\C#N)C(N)=O
(A) 29

(Q) Give inhibition at 200 µg/mL for the following compound: Cc1cccc2c3c([nH]c12)C(=C(/C#N)C(N)=O)/C(=C/c1ccccc1)CC3
(A) 21

(Q) Please give the documented inhibition at 200 µg/mL of Cc1ccc2[nH]c3c(c2c1)CCC(=C\c1ccc(F)cc1)/C3=C(\C#N)C(N)=O
(A) 17

(Q) Report inhibition at 200 µg/mL, nothing else, for this compound: O=C(O)c1cn(C2CC2)c2cc(N3CCNCC3)c(F)cc2c1=O
(A) 25.5

(Q) Report inhibition at 200 µg/mL, nothing else, for this compound: Cc1ccc2[nH]c3c(c2c1)CCC(=C\c1cccs1)/C3=C(\C#N)C(N)=O
(A) 74

(Q) Quickly give me recorded inhibition at 200 µg/mL for COc1ccc(/C=C2\CCc3c([nH]c4ccc(C)cc34)\C2=C(\C#N)C(N)=O)cc1OC
(A) 78

(Q) Entry COc1ccc(/C=C2\CCc3c([nH]c4cc(C)ccc34)\C2=C(\C#N)C(N)=O)cc1OC needs its inhibition at 200 µg/mL filled in; supply it.
(A) 12

(Q) Given the compound Cc1ccc2c3c([nH]c2c1)C(=C(/C#N)C(N)=O)/C(=C/c1cccs1)CC3 , write its reported inhibition at 200 µg/mL.
(A) 18

(Q) Quickly give me recorded inhibition at 200 µg/mL for COc1ccc(/C=C2\CCc3c([nH]c4c(C)cccc34)\C2=C(\C#N)C(N)=O)cc1OC
(A) 16

(Q) Identify inhibition at 200 µg/mL associated with the compound Cc1ccc2[nH]c3c(c2c1)CCC(=C\c1ccccc1)/C3=C(\C#N)C(N)=O
(A) 71

(Q) Query inhibition at 200 µg/mL for Cc1ccc2[nH]c3c(c2c1)CCC(=C\c1ccccn1)/C3=C(\C#N)C(N)=O
(A) 32

====

System: Pseudomonas aeruginosa
test: Antibiofilm activity against carbenicillin-resistant Pseudomonas aeruginosa assessed as disruption of biofilm at 200 ug/ml after 24 hrs by crystal violet staining based ELISA relative to control
Assay type: functional
inhibition at 200 µg/mL of 20% or higher: True. Under 20%: False.

(Q) API: above_or_equal(metric=inhibition at 200 µg/mL, cutoff=20%) for item COc1ccc(/C=C2\CCc3c([nH]c4ccc(C)cc34)\C2=C(\C#N)C(N)=O)cc1OC
(A) True

(Q) Does the reported inhibition at 200 µg/mL for Cc1ccc2[nH]c3c(c2c1)CCC(=C\c1cccs1)/C3=C(\C#N)C(N)=O fall at or above the 20% mark?
(A) True

(Q) Determine whether measured inhibition at 200 µg/mL meets or exceeds 20% for O=C(O)c1cn(C2CC2)c2cc(N3CCNCC3)c(F)cc2c1=O
(A) True

(Q) Is inhibition at 200 µg/mL at least 20%? Consider Cc1cccc2c3c([nH]c12)C(=C(/C#N)C(N)=O)/C(=C/c1cccs1)CC3
(A) True

(Q) Confirm if inhibition at 200 µg/mL reported for the compound Cc1cccc2c3c([nH]c12)C(=C(/C#N)C(N)=O)/C(=C/c1ccccc1)CC3 is 20% or above.
(A) False

(Q) Determine whether measured inhibition at 200 µg/mL meets or exceeds 20% for Cc1ccc2[nH]c3c(c2c1)CCC(=C\c1ccccn1)/C3=C(\C#N)C(N)=O
(A) False

(Q) hey, is inhibition at 200 µg/mL for this one >= 20%? CCOc1ccc(/C=C2\CCc3c([nH]c4ccc(C)cc34)\C2=C(\C#N)C(N)=O)cc1OCC
(A) True

(Q) Please check the record Cc1ccc2[nH]c3c(c2c1)CCC(=C\c1cccc(F)c1)/C3=C(\C#N)C(N)=O and state if its inhibition at 200 µg/mL is at or above 20%.
(A) True

(Q) Threshold query (inhibition at 200 µg/mL >= 20%) on Cc1ccc2[nH]c3c(c2c1)CCC(=C\c1ccc(F)cc1)/C3=C(\C#N)C(N)=O
(A) False

(Q) hey, is inhibition at 200 µg/mL for this one >= 20%? COc1ccc(/C=C2\CCc3c([nH]c4c(C)cccc34)\C2=C(\C#N)C(N)=O)cc1OC
(A) False

(Q) State whether the measured inhibition at 200 µg/mL reaches 20%, counting equality as reaching it, for Cc1ccc2c3c([nH]c2c1)C(=C(/C#N)C(N)=O)/C(=C/c1ccccc1)CC3
(A) False

(Q) Decide: is the reported value of inhibition at 200 µg/mL for COc1ccc(/C=C2\CCc3c([nH]c4cc(C)ccc34)\C2=C(\C#N)C(N)=O)cc1OC equal to or greater than 20%?
(A) False
